# STUDY TARGET: TLR1/TLR2 (Mus musculus, UniProt Q9EPQ1+Q9QUN7)
# Sequence (Q9EPQ1 26-795): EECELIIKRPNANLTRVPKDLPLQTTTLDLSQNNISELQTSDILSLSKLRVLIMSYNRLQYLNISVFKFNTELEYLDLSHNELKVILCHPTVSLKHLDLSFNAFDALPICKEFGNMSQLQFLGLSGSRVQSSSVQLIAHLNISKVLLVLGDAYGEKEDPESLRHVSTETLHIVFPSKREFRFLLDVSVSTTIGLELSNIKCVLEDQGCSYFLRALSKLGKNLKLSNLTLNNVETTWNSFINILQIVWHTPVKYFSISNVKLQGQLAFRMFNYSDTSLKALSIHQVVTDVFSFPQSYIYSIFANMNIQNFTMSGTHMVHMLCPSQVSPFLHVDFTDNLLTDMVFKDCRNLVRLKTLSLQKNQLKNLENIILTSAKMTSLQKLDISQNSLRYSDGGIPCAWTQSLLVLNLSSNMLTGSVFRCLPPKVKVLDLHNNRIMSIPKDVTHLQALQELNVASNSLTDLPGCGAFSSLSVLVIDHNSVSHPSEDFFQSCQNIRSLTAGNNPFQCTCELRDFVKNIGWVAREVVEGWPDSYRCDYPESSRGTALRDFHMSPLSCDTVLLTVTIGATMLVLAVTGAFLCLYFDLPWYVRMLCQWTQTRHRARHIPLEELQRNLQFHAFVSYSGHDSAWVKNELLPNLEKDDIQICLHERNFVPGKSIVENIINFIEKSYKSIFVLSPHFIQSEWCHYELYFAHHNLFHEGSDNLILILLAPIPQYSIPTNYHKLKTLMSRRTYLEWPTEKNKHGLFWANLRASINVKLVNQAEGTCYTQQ
# Sequence (Q9QUN7 25-784): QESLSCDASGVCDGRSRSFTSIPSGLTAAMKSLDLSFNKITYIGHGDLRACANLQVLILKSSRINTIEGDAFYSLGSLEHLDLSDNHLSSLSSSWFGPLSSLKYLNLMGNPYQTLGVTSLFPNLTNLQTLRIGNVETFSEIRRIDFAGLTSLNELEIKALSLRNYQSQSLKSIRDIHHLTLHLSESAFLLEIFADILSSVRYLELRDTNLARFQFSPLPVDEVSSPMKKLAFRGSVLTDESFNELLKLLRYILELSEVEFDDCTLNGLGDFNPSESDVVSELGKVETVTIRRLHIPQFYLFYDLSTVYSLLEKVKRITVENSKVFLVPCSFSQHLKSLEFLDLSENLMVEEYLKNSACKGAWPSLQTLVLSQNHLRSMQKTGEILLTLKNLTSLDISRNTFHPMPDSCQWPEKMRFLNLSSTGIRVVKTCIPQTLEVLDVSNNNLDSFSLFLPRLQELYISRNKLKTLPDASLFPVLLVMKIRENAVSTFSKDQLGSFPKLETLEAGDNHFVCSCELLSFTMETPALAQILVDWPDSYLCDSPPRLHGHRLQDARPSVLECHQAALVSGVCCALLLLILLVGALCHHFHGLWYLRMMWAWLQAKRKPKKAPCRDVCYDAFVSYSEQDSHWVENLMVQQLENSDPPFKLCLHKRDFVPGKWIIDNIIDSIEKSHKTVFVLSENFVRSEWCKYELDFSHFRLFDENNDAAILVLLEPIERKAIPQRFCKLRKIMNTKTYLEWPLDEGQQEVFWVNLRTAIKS
# PROCEDURE TEXT: TNF-α release from thioglycolate-elicited mouse peritoneal macrophages (ELISA)
# EXPERIMENTAL CONTEXT: read-out: EC50 (nM) (mouse): EC50 TNF-α release from mouse macrophages; Table 3

| RECORD SMILES | EC50 |
| --- | --- |
| COC(=O)CNC(=O)OCCCCCCCCCCCCNC(=O)[C@@H]1CN(C(=O)c2ccc(C(=O)N3C[C@@H](C(=O)N[C@H]4C[C@@H]4c4ccccc4)[C@H](C(=O)N[C@H]4C[C@@H]4c4ccccc4)C3)cc2)C[C@H]1C(=O)N[C@H]1C[C@@H]1c1ccccc1 | 6 nM |
| O=C(CNC(=O)C(F)(F)F)OCCCCCCCCCCCCNC(=O)[C@@H]1CN(C(=O)c2ccc(C(=O)N3C[C@@H](C(=O)N[C@H]4C[C@@H]4c4ccccc4)[C@H](C(=O)N[C@H]4C[C@@H]4c4ccccc4)C3)cc2)C[C@H]1C(=O)N[C@H]1C[C@@H]1c1ccccc1 | 3.5 nM |
| CC(C)(C)OC(=O)NCCOCCCCCCCCCCCCNC(=O)[C@@H]1CN(C(=O)c2ccc(C(=O)N3C[C@@H](C(=O)N[C@H]4C[C@@H]4c4ccccc4)[C@H](C(=O)N[C@H]4C[C@@H]4c4ccccc4)C3)cc2)C[C@H]1C(=O)N[C@H]1C[C@@H]1c1ccccc1 | 6.3 nM |
| CC(C)(C)OC(=O)NCC(=O)OCCCCCCCCCCCCNC(=O)[C@@H]1CN(C(=O)c2ccc(C(=O)N3C[C@@H](C(=O)N[C@H]4C[C@@H]4c4ccccc4)[C@H](C(=O)N[C@H]4C[C@@H]4c4ccccc4)C3)cc2)C[C@H]1C(=O)N[C@H]1C[C@@H]1c1ccccc1 | 0.75 nM |

Provenance of the data: patent US20250367166A1
